Quick list: growth inhibition per entry.
assayDetails: NCI Yeast Anticancer Drug Screen. Data for the bub3 strain (AID 167)
conditionParameters: S. cerevisiae bub3 mutant strain, at 50.0 µM, active compounds read high
Compounds without any hit were thinned out: in the full panel of roughly 79,000, 15% have a hit.
Give your result in % as a bare value.

# return recorded growth inhibition for entry C(=C\CSc1ccccn1)/CSc1ccccn1
49.4

# return recorded growth inhibition for entry COCCCC(NC(=O)C(CC(C)C)NC(=O)OCc1ccc(OC)cc1)C(N)=O (stereo unspecified)
-12.1

# return recorded growth inhibition for entry C=C(Cl)Cc1c(O)c2c(c(O)c1CC(=C)Cl)C(=O)c1ccccc1C2=O
-18.1

# return recorded growth inhibition for entry O=C(OCc1ccccc1)c1ccc(Cl)cc1
-1.65

# return recorded growth inhibition for entry O=C(CCCCCCCCC(=O)NCC1(c2ccccc2)CCNCC1)NCC1(c2ccccc2)CCNCC1
-23.9

# return recorded growth inhibition for entry O=c1oc2nc(-c3ccccc3)[nH]c(=O)c2c(O)c1Cc1ccccc1
27.6

# return recorded growth inhibition for entry CC1=C(C(=O)CC(=O)C(=O)Nc2ccc(C)cc2)Sc2ccccc2N1
-9.1

# return recorded growth inhibition for entry COc1ccc(C(=O)C(C(=O)C(=O)NCCCNC(=O)C(=O)C(C(=O)c2ccc(OC)cc2)c2ccc(OC)cc2)c2ccc(OC)cc2)cc1 (stereo unspecified)
-9.25

# return recorded growth inhibition for entry O=C(O)/C(=C/C=C/c1ccccc1)c1csc(-c2nc(/C(=C\C=C\c3ccccc3)C(=O)O)cs2)n1
19.1

# return recorded growth inhibition for entry CCCC1=NCCO1
-6.95

# return recorded growth inhibition for entry Nc1nnnn1NC(=O)NCCCl
-27.4

* * *

Quick list: growth inhibition per entry.
assayDetails: NCI Yeast Anticancer Drug Screen. Data for the rad50 strain (AID 155);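 note: 0% = growth of vehicle-only cultures of the same strain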
conditionParameters: S. cerevisiae rad50 strain growth inhibition; at 50.0 µM; active compounds read high
The panel holds about 79,000 compounds, 15% with a hit somewhere; the sample as a whole holds those more often.
Give your result in % as a bare value.

# return recorded growth inhibition for entry Oc1cc(O)c2c(-c3c(O)c(-c4ccc(O)c(O)c4)[o+]c4cc(O)cc(O)c34)c(O)c(-c3ccc(O)c(O)c3)[o+]c2c1
44.4

# return recorded growth inhibition for entry C=C(CC(=O)NN)C(=O)NN
-4.75

# return recorded growth inhibition for entry Cc1nc(C)c(CC#N)s1
-9.25

# return recorded growth inhibition for entry CCOc1cc2c(cc1O)CC[C@@H]1[C@@H]2CC[C@]2(C)C(N)CC[C@@H]12 (stereo partly specified)
-0.95

# return recorded growth inhibition for entry c1ccc(-c2c(-c3cccs3)[nH]c(-c3cccs3)c2-c2ccccn2)nc1
-6.7

Turning now to a further record.
# return recorded growth inhibition for entry Nc1c(Br)c(Cl)c(Br)c2c1-c1ccc(Cl)cc1C2
-13.1

* * *

assayDetails: NCI Yeast Anticancer Drug Screen. Data for the cln2 rad14 strain (AID 165);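 note: 0% = growth equal to vehicle treated cultures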
conditionParameters: S. cerevisiae cln2 rad14 strain, at 50.0 µM, active compounds read high
About 79,000 compounds went through this panel and 15% of them were active in at least one assay; those are over-represented in the sample as a whole. The source made the active and inactive calls. Rule as the data show it: active = growth inhibition above about 70%; inactive = the rest.
Quick list: growth inhibition per entry.

The following compounds have reported results that may help.
# return recorded growth inhibition for entry COC1CCCCC(=NNC(N)=O)CCCC1 (stereo unspecified)
-44.6% (inactive)

# return recorded growth inhibition for entry CCCCC(=O)OC[n+]1ccc2c(C)c3[nH]c4ccc(OC)cc4c3c(C)c2c1
89.1% (active)

# return recorded growth inhibition for entry Cc1[nH]c(=O)nc(N(CCO)/N=C/c2ccc(Cl)cc2)c1C(=O)Nc1ccc(Cl)cc1
12.4% (inactive)

# return recorded growth inhibition for entry Oc1ccc(-c2cc(-c3cc(-c4ccc(O)cc4)no3)on2)cc1
-11.7% (inactive)

# return recorded growth inhibition for entry CC(=O)C1C(=O)C(=O)N(c2ccc(F)cc2)C1=O (stereo unspecified)
-6.95% (inactive)

# return recorded growth inhibition for entry CC(=O)Oc1cccc(OC(=O)Nc2ccc(C)c(NC(=O)Oc3cccc(OC(C)=O)c3)c2)c1
19.3% (inactive)

# return recorded growth inhibition for entry CCCc1c(C(=O)OCC)[nH]c(C(=O)CCC(=O)c2[nH]c(C(=O)OCC)c(CCC)c2C(=O)OCC)c1C(=O)OCC
-19.4% (inactive)

# return recorded growth inhibition for entry CC1(C)CC(OP(=O)(OC2CC(C)(C)N(O)C(C)(C)C2)c2ccccc2)CC(C)(C)N1O
-21.1% (inactive)

Next:
# return recorded growth inhibition for entry CN1CCN(CN2C(=O)C3C4C=CC(C3C2=O)C2C(=O)N(CN3CCN(C)CC3)C(=O)C42)CC1 (stereo unspecified)
-0.85% (inactive)

# return recorded growth inhibition for entry CCOC1(OCC)C2(Cl)C(Cl)=C(Cl)C1(Cl)C1CCCC12 (stereo unspecified)
17.1% (inactive)

# return recorded growth inhibition for entry O=C(NC(=S)Nc1cccc2ccccc12)c1ccccc1F
5.3% (inactive)

# return recorded growth inhibition for entry C=CC(C)C(C)C (stereo unspecified)
4.3% (inactive)

# return recorded growth inhibition for entry CN(C)CC1CCC/C(=C\c2ccc(N(C)C)cc2)C1=O (stereo unspecified)
12.2% (inactive)

* * *

assayDetails: NCI Yeast Anticancer Drug Screen. Data for the rad50 strain (AID 155);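 note: 0% = growth of vehicle-only cultures of the same strain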
conditionParameters: S. cerevisiae rad50 strain growth inhibition; at 50.0 µM
About 79,000 compounds went through this panel and 15% of them were active in at least one assay; those are over-represented in the sample as a whole. The source made the active and inactive calls. Cut-off read from the data, not from the text of the source: active = growth inhibition above about 70%; inactive = the rest.
Valid outcomes are listed here; reply with one: true for active, false for inactive

// param item: CCCCN(CCCC)CCC(O)c1cc(-c2ccc(Cl)c(Cl)c2)nc2c(Cl)cc(Cl)cc12 (stereo unspecified) ; yields the recorded call
true

// param item: COc1ccc(COC(=O)Nc2ccccc2Cl)cc1 ; yields the recorded call
false

// param item: CCN(CC)CCCC#CCN1CCOCC1 ; yields the recorded call
false

// param item: CC(=O)OCC(OC(C)=O)C1(O)CCC2C3CCC4=CC(=O)CCC4(C)C3CCC21C (stereo unspecified) ; yields the recorded call
true

// param item: Cc1ccc(S(=O)(=O)CC(=O)CC(=O)C(=O)Nc2ccc(C)cc2C)cc1 ; yields the recorded call
false

Here is the next item to consider.
// param item: CNCCC1CCCCCC1 ; yields the recorded call
false

* * *

assayDetails: NCI Yeast Anticancer Drug Screen. Data for the cln2 rad14 strain (AID 165);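 note: 0% = growth equal to vehicle treated cultures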
conditionParameters: S. cerevisiae cln2 rad14 strain, at 50.0 µM
About 79,000 compounds went through this panel and 15% of them were active in at least one assay; those are over-represented in the sample as a whole. Calls of active or inactive are those of the source. Cut-off read from the data, not from the text of the source: active = growth inhibition above about 70%; inactive = the rest.
Valid outcomes are listed here; reply with one: active, inactive

Previously resolved entries follow.
// param item: CCN(CC)CCN1C(=O)NC2(CCCCC2)C1=O ; yields the recorded call
inactive

// param item: CCN1CCCC(Nc2cc(C)nc(/N=C(\N)Nc3ccc(Cl)c(Cl)c3)n2)C1 (stereo unspecified) ; yields the recorded call
active

// param item: CCOc1ccc(OCC)c(N)c1 ; yields the recorded call
inactive

// param item: CCCCCn1c(=O)c2cc3c(=O)n(CCCCC)c(=O)c3cc2c1=O ; yields the recorded call
inactive

// param item: O=C1c2ccccc2-c2ccc(N3C(=O)c4c(Br)c(Br)c(Br)c(Br)c4C3=O)cc21 ; yields the recorded call
inactive

Next:
// param item: ClCc1ccc(-c2ccccc2)cc1 ; yields the recorded call
inactive

* * *

assayDetails: NCI Yeast Anticancer Drug Screen. Data for the bub3 strain (AID 167)
conditionParameters: S. cerevisiae bub3 mutant strain, at 50.0 µM, active compounds read high
This is part of a sample that, as a whole, favours compounds with a hit. Of some 79,000 tested, about 15% had one in any assay.
outcomeMeasure: growth inhibition (%)
Give your result in % as a bare value.

The following compounds have reported results that may help.
# return recorded growth inhibition for entry CCC1(O)C(=O)c2ccccc2N(c2ccccc2)C1=O (stereo unspecified)
8.3

# return recorded growth inhibition for entry COc1ccc(-c2cc(=O)c3cc(C)c(C)c(C#N)c3o2)cc1
-29.9

# return recorded growth inhibition for entry Cn1nc(-c2cccc(N)c2)cc1Cl
-15.6

# return recorded growth inhibition for entry S=C1N=C2c3ccccc3C2C(=S)S1 (stereo unspecified)
4.75

# return recorded growth inhibition for entry Brc1ccc(Br)nc1
-10.1

# return recorded growth inhibition for entry CC(=O)C(C)(O)C(OP(=O)(O)O)c1ccccc1 (stereo unspecified)
-11.1

Next:
# return recorded growth inhibition for entry CCN(CC)C(=O)Nc1cccc(O)c1
-0.25

# return recorded growth inhibition for entry Cc1nccnc1N1CCCCC1
1.9

# return recorded growth inhibition for entry CO[C@@H]1O[C@H](C(=O)c2ccccc2)[C@H]2OC(C)(C)O[C@@H]12
19.1

# return recorded growth inhibition for entry Cn1cc(S(=O)(=O)NC(=O)Nc2ccc(Cl)cc2)c(=O)c2ccc(Cl)cc21
33.2

From: PubChem BioAssay (NCI)
